Molecular target: furin, P09958;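 also: purified furin at 1:10 enzyme:substrate in 50 mM HEPES pH 7.5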
Sequence (P09958 whole entry): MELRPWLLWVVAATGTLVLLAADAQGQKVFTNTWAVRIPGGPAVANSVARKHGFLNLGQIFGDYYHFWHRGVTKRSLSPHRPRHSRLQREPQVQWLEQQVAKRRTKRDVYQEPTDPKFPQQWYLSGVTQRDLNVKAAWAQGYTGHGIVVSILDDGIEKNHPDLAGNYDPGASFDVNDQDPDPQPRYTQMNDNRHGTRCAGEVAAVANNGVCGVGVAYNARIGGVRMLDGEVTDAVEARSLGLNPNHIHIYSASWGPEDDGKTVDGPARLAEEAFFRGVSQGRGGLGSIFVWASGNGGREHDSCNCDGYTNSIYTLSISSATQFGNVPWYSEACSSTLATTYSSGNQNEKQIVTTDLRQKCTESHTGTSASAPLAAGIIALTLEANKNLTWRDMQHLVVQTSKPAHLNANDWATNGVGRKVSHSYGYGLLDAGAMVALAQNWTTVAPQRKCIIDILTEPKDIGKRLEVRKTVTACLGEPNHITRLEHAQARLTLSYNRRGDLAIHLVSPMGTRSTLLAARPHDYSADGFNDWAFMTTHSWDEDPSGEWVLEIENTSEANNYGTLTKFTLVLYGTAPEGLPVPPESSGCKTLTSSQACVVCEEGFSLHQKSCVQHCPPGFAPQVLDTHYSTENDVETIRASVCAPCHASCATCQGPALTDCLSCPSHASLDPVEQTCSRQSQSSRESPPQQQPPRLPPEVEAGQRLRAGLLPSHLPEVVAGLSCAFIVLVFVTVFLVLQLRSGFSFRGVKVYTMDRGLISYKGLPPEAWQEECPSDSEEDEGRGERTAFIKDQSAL
Assay: furin cleavage Z-score vs untreated control; higher = more cleavage, active = 3.5 or more, inactive = 1 or less, 8 variable residues between constant flanks
Conditions: 30 min
Some of the results follow. No count for the full screen is at hand.
Measured furin cleavage Z-score of individual entries
PROPERTY_NAME: furin cleavage Z-score

1. CAPCEPEPDVAGNASASA [HC1241] | -0.805
2. CAQSSRQPRPAGNASASA [FS-141] | -0.417
3. CARRARSLALAGNASASA [FS-2770] | 6.89
4. CAKNMRRKRKAGNASASA [FS-1222] | 7.84
5. CAQSSRHRRAAGNASASA [FS-851] | 10.3
6. CAKRKRSKRKAGNASASA [FS-1223] | 8.25
7. CAGVVTSTWVAGNASASA [HC2156] | -0.545
